molecular target: Human HER2 expressed on tumour cells (human, UniProt P04626 23-1255); test: cell-based or functional assay
# reported IC50 [nM], inhibition of BT474 cell proliferation (BrdU); entries follow
Express the result in nM but write the number alone.

Some solved cases for reference:
Using the record for DARPin #29 (designed binder) MRGSHHHHHHGSDLGVKLLWAAARGQDDEVRILLAAGADVNAKDFQGITPLHIAATNGHLEIVEVLLKAGADVNAKDITGETPLHHAADSGHLEIVEVLLKAGADVNAQDKAGVTPADLAAAWGHEDIAEVLQKLGGGGSGGGGSRSDLGKKLLEAARAGQDDEVRILMANGADVNAKDEYGLTPLYLATAHGHLEIVEVLLKNGADVNAVDAIGFTPLHLAAFIGHLEIAEVLLKHGADVNAQDKFGKTAFDISIGNGNEDLAEILQKLN , report its IC50 [nM], inhibition of BT474 cell proliferation (BrdU).
1.33

IC50 [nM], inhibition of BT474 cell proliferation (BrdU) for DARPin #24 (designed binder) MRGSHHHHHHGSDLGDKLLQSDLGIKLLFAAAKSQDDEVRILLAAGADVNAKDFQSVTPLHIAAQSGHLEIVEVLLKAGADVNAKDVTGDTPLHLAAQHGHLEIVEVLLKAGADVNAQDERGWTPADLAADWGHEDIAEVLQKLGGGGSGGGGSRSDLGKKLLEAARAGQDDEVRILMANGADVNAKDEYGLTPLYLATAHGHLEIVEVLLKNGADVNAVDAIGFTPLHLAAFIGHLEIAEVLLKHGADVNAQDKFGKTAFDISIGNGNEDLAEILQKLN ?
1.97

Query (binder): DARPin #42 (designed binder) MRGSHHHHHHGSDLGAKLLSDLGVKLLWAAARGQDDEVRILLAAGADVNAKDFQGITPLHIAAQSGHLEIVEVLLKAGADVNAKDVTGDTPLHLAAQHGHLVIVEVLLKAGADVNAQDERGWTPADLAADWGHEDIAEVLQKLGGGGSGGGGSRSDLGKKLLEAARAGQDDEVRILMANGADVNATDIHGHTPLHLAAAMGHLEIVEVLLKNGADVNANDWRGFTPLHLAALNGHLEIVEVLLKNGADVNATDTAGNTPLHLAAWFGHLEIVEVLLKNGADVNAQDKFGKTAFDISIDNGNEDLAEILQKLN ; field requested: IC50 [nM], inhibition of BT474 cell proliferation (BrdU)
3.77

Can you share its IC50 [nM], inhibition of BT474 cell proliferation (BrdU)? I mean this binder: DARPin #27 (designed binder) MRGSHHHHHHGSDLGVKLLWAAARGQDDEVRILLAAGADVNAKDFQGITPLHIAATNGHLEIVEVLLKAGADVNAKDITGETPLHHAADSGHLEIVEVLLKAGADVNAQDKAGVTPADLAAAWGHEDIAEVLQKLGGGGSGGGGSRSDLGIKLLQAANLGQDDEVRILLATGADVNAKDSIGQTPLHWAARRGHLEIVEVLLKAGADVNAKDEYGVTPLHLAASLGHLEIVEVLLKAGADVNAQDESGETPADLAALHGHEDIAEVLQKLN
4.57

Note: attention shifts to another entry.
For DARPin #22 (designed binder) MRGSHHHHHHGSDLGDKLLQSDLGIKLLFAAAKSQDDEVRILLAAGADVNAKDFQSVTPLHIAAQSGHLEIVEVLLKAGADVNAKDVTGDTPLHLAAQHGHLEIVEVLLKAGADVNAQDERGWTPADLAADWGHEDIAEVLQKLGGGGSGGGGSRSDLGIKLLQAANLGQDDEVRILLATGADVNAKDSIGQTPLHWAARRGHLEIVEVLLKAGADVNAKDEYGVTPLHLAASLGHLEIVEVLLKAGADVNAQDESGETPADLAALHGHEDIAEVLQKLN , what is its reported IC50 [nM], inhibition of BT474 cell proliferation (BrdU)?
4.03

FYI, the data here is from patent US20150299265A1.
